Reported MIC values are given for each entry in this list.
system: Escherichia coli; assay: Antimicrobial activity against Escherichia coli by serial dilution method; type: functional

COMPOUND	MEAS VALUE
COC(=O)CC/C=C/[C@@H](O)C/C=C/C=C/C=C/C=C/C=C/[C@@H](O)[C@@H](C)CO	> 80 µg/mL
COC(=O)CC/C=C/[C@@H](O)C/C=C/C=C/C=C/CC/C=C/C=C/[C@@H](O)[C@@H](C)CO	> 80 µg/mL

Proceeding to the next compound to report its MIC.
[Q] State the recorded MIC for this entry: CO[C@@H]1C/C=C\C=C\C[C@H](C)[C@@H](O)[C@H](C)[C@@H](O)[C@H](C)[C@H](O)CC(=O)O[C@H]([C@H](C)[C@H](O)/C=C(C)/C=C/C=C/C=C/C=C/C=C/C[C@H](O)/C(C)=C/CCC(=O)O)C[C@H](O)CCC1 [ETNANGIEN]
[A] > 80 µg/mL

====

test system: Bacillus subtilis; assay: Antimicrobial activity against Bacillus subtilis by serial dilution method; format: functional
molecules and their reported MIC
Dear colleague, please return just the value in µg/mL, with no unit written.

Reference set (2 entries):
SMILES CODE	SYSTEM NAME	MEAS VALUE
CO[C@@H]1C/C=C\C=C\C[C@H](C)[C@@H](O)[C@H](C)[C@@H](O)[C@H](C)[C@H](O)CC(=O)O[C@H]([C@H](C)[C@H](O)/C=C(C)/C=C/C=C/C=C/C=C/C=C/C[C@H](O)/C(C)=C/CCC(=O)O)C[C@H](O)CCC1	Bacillus subtilis	10
COC(=O)CC/C=C/[C@@H](O)C/C=C/C=C/C=C/CC/C=C/C=C/[C@@H](O)[C@@H](C)CO	Bacillus subtilis	20

Kindly review the next molecule as well.
[Q] Which measured MIC value corresponds to COC(=O)CC/C=C(\C)[C@@H](O)C/C=C/C=C/C=C/C=C/C=C/C(C)=C/[C@@H](O)[C@@H](C)[C@@H]1C[C@H](O)CCC[C@H](OC)C/C=C\C=C\C[C@H](C)[C@@H](O)[C@H](C)[C@@H](O)[C@H](C)[C@H](O)CC(=O)O1 ?
[A] 20

====

The entries below come with measured MIC values attached.
test system: Corynebacterium glutamicum; experiment: Antimicrobial activity against Corynebacterium glutamicum by serial dilution method; type: functional
Respond with the bare value in µg/mL.

Below, each entry is followed by its recorded MIC result.
SMILES CODE	RESULT UNIT	MEAS VALUE
COC(=O)CC/C=C/[C@@H](O)C/C=C/C=C/C=C/CC/C=C/C=C/[C@@H](O)[C@@H](C)CO	µg/mL	80
COC(=O)CC/C=C/[C@@H](O)C/C=C/C=C/C=C/C=C/C=C/[C@@H](O)[C@@H](C)COCc1ccc(OC)cc1	µg/mL	80
COC(=O)CC/C=C(\C)[C@@H](O)C/C=C/C=C/C=C/C=C/C=C/C(C)=C/[C@@H](O)[C@@H](C)[C@@H]1C[C@H](O)CCC[C@H](OC)C/C=C\C=C\C[C@H](C)[C@@H](O)[C@H](C)[C@@H](O)[C@H](C)[C@H](O)CC(=O)O1	µg/mL	0.24

The record that follows has no MIC shown yet.
[Q] Please look up its MIC: CO[C@@H]1C/C=C\C=C\C[C@H](C)[C@@H](O)[C@H](C)[C@@H](O)[C@H](C)[C@H](O)CC(=O)O[C@H]([C@H](C)[C@H](O)/C=C(C)/C=C/C=C/C=C/C=C/C=C/C[C@H](O)/C(C)=C/CCC(=O)O)C[C@H](O)CCC1
[A] 0.03

====

tested on: Escherichia coli; test: Antimicrobial activity against Escherichia coli by serial dilution method; type: functional
Documented MIC across a set of compounds

SMILES CODE	MIC
COC(=O)CC/C=C/[C@@H](O)C/C=C/C=C/C=C/C=C/C=C/[C@@H](O)[C@@H](C)COCc1ccc(OC)cc1	> 80 µg/mL
COC(=O)CC/C=C/[C@@H](O)C/C=C/C=C/C=C/CC/C=C/C=C/[C@@H](O)[C@@H](C)COCc1ccc(OC)cc1	> 80 µg/mL

[Q] Give MIC (Escherichia coli) of the following compound: COC(=O)CC/C=C(\C)[C@@H](O)C/C=C/C=C/C=C/C=C/C=C/C(C)=C/[C@@H](O)[C@@H](C)[C@@H]1C[C@H](O)CCC[C@H](OC)C/C=C\C=C\C[C@H](C)[C@@H](O)[C@H](C)[C@@H](O)[C@H](C)[C@H](O)CC(=O)O1
[A] > 20 µg/mL

[Q] // query: COC(=O)CC/C(C)=C/[C@@H](O)C/C=C/C=C/C=C/C=C/C=C/C(C)=C/[C@@H](O)[C@@H](C)COCc1ccc(OC)cc1
[A] > 40 µg/mL

====

system: Bacillus subtilis; assay: Antimicrobial activity against Bacillus subtilis by serial dilution method; assay type: functional
RECORDED ENDPOINT: MIC

> print(dat)
                                smiles.code  recorded.endpoint  meas.value
1  COC(=O)CC/C=C/[C@@H](O)C/C=C/C=C/C=C/CC/C=C/C=C/[C@@H](O)[C@@H](C)COCc1ccc(OC)cc1                MIC  > 80 µg/mL
2  COC(=O)CC/C=C/[C@@H](O)C/C=C/C=C/C=C/C=C/C=C/[C@@H](O)[C@@H](C)CO                MIC  > 80 µg/mL
3  COC(=O)CC/C=C/[C@@H](O)C/C=C/C=C/C=C/C=C/C=C/[C@@H](O)[C@@H](C)COCc1ccc(OC)cc1                MIC  > 80 µg/mL

Switching to the query record.
[Q] Which MIC value belongs to COC(=O)CC/C(C)=C/[C@@H](O)C/C=C/C=C/C=C/C=C/C=C/C(C)=C/[C@@H](O)[C@@H](C)COCc1ccc(OC)cc1 ?
[A] > 40 µg/mL

====

Entries and their measured MIC follow.
tested on: Corynebacterium glutamicum; assay: Antimicrobial activity against Corynebacterium glutamicum by serial dilution method; type: functional

Reference set (2 entries):
> print(dat)
                                smiles.code  recorded.endpoint  meas.value
1  COC(=O)CC/C=C/[C@@H](O)C/C=C/C=C/C=C/C=C/C=C/[C@@H](O)[C@@H](C)CO                MIC  > 80 µg/mL
2  COC(=O)CC/C=C/[C@@H](O)C/C=C/C=C/C=C/CC/C=C/C=C/[C@@H](O)[C@@H](C)COCc1ccc(OC)cc1                MIC  > 80 µg/mL

Consider the additional molecule presented here.
[Q] Name the reported MIC value associated with the molecule COC(=O)CC/C(C)=C/[C@@H](O)C/C=C/C=C/C=C/C=C/C=C/C(C)=C/[C@@H](O)[C@@H](C)COCc1ccc(OC)cc1
[A] > 40 µg/mL
